Sourced from patent US10023592B2

Catalogue of pIC50 values
Target: BRD4(BD1) (Homo sapiens (Human))
Experiment: In vitro enzyme inhibition assay (BRD4 AlphaScreen)
Assay type: binding
Conditions: in vitro enzyme inhibition assay
pIC50: −log10 of the molar value.

Here are 8 molecules together with their reported answers.
Consider Cc1cc(-c2cc(S(C)(=O)=O)ccc2OC2CCC(F)(F)CC2)cn(C)c1=O . Its measured pIC50 is > 6.30

Consider CCS(=O)(=O)Nc1ccc(Oc2ccc(F)cc2F)c(-c2cc(OCC(F)(F)F)c(=O)n(C)c2)c1 . Its measured pIC50 is > 6.30

Consider Cc1cc(-c2cc(OCc3cccnc3)cc(S(C)(=O)=O)c2)cn(C)c1=O . Its measured pIC50 is > 6.30

Consider Cn1cc(-c2cc(S(C)(=O)=O)ccc2OCC2CC2)c2ocnc2c1=O . Its measured pIC50 is > 6.30

Consider CCS(=O)(=O)Cc1ccc(Oc2ccc(F)cc2F)c(-c2cn(C)c(=O)c3cncn23)c1 . Its measured pIC50 is > 6.30

Consider CCCOc1ccc(S(=O)(=O)CC)cc1-c1cn(C)c(=O)c2cnc(-c3cnn(C)c3)nc12 . Its measured pIC50 is > 6.30

Consider Cc1cc(-c2cn(CS(C)(=O)=O)c(=O)cc2Oc2ccc(F)cc2F)cn(C)c1=O . Its measured pIC50 is > 6.30

Consider Cc1cc(-c2cc(NS(C)(=O)=O)ccc2OC2CCOCC2)cn(C)c1=O . Its measured pIC50 is > 6.30

More entries:
Consider Cn1cc(-c2cc(S(C)(=O)=O)ccc2O[C@H]2CC[C@@H](N)CC2)c2ccccc2c1=O . Its measured pIC50 is > 6.30

Consider CCS(=O)(=O)c1ccc(OCC2CC2)c(-c2cn(C)c(=O)c3occc23)c1 . Its measured pIC50 is > 6.30

====

Test system: HL-60, human proleukemia cells
Assay: Cell-MTS proliferation assay, HL-60
Type: cell-based
Settings: Homo sapiens, HL-60; Cell-MTS, 168 hr; class symbols A/B/C
From the text: The Cell-MTS assay is a 7-day plate-based colorimetric assay which quantifies the amount of newly generated NADH in the presence or absence of test compound. The NADH level is used for the quantification of cancer cell proliferation. Established cancer cell lines with a variety of driving mutations were obtained from American Type Culture Collection (ATCC) and routinely passaged according to ATCC protocols. […]
PROPERTY: IC50

Here are 2 compounds together with their reported answers.
Consider Cn1cc(-c2cc(NS(C)(=O)=O)ccc2Oc2ccc(F)cc2F)ccc1=O [Example 100] . Its measured IC50 is < 500 nM

Consider CN(C(=O)OC(C)(C)C)c1cccc(-c2cn(C)c(=O)c3ccccc23)c1 [Example 31] . Its measured IC50 is 500 to 5000 nM

More entries:
Consider Cn1cc(-c2ccc(F)c(NS(C)(=O)=O)c2)c2ccccc2c1=O [Example 37] . Its measured IC50 is 500 to 5000 nM

Consider Cn1cc(-c2cc(S(C)(=O)=O)ccc2OCC2CC2)cc(N)c1=O [Example 116] . Its measured IC50 is 500 to 5000 nM

====

Catalogue of IC50 values
Target: BRD4(BD1) (Homo sapiens (Human))
Test: In vitro enzyme inhibition assay (BRD4 AlphaScreen)
Format: binding
Settings: class symbols A/B/C

Consider CCS(=O)(=O)Nc1ccc(Oc2ccc(F)cc2F)c(-c2cn(C)c(=O)c3cnccc23)c1 . Its measured IC50 is < 500 nM

More entries:
Consider CCNS(=O)(=O)c1cccc(-c2cn(C)c(=O)c3ccncc23)c1 . Its measured IC50 is 500 to 5000 nM

Consider CNc1cc(-c2ccc(OC)c(NS(C)(=O)=O)c2)cn(C)c1=O . Its measured IC50 is < 500 nM

Consider Cn1cc(-c2cc(S(C)(=O)=O)ccc2OCC2CC2)c2ccc(F)cc2c1=O . Its measured IC50 is < 500 nM

Consider COc1ccc(-c2cn(C)c(=O)c3cncn23)cc1NS(C)(=O)=O . Its measured IC50 is 500 to 5000 nM

Consider Cn1cc(-c2cc(S(C)(=O)=O)ccc2OCC2CC2)ccc1=O . Its measured IC50 is 500 to 5000 nM

Consider COc1ccc(-c2cn(C)c(=O)c3ccccc23)cc1C(=O)NCc1ccccc1 . Its measured IC50 is 500 to 5000 nM

Consider Cn1cc(-c2cccc(S(C)(=O)=O)c2)nc(N)c1=O . Its measured IC50 is > 5000 nM

Consider Cn1cc(-c2cccc(S(C)(=O)=O)c2)n2cncc2c1=O . Its measured IC50 is > 5000 nM
